- Tested on: HS 578T breast
- protocol description: NCI tumour cell line growth inhibition, 48 h
# key: entry, value: TGI

{"columns": ["compound", "TGI"],
 "data": [
  ["Cc1ccc(/C=N/Nc2nc3ccccc3s2)s1", "> 100 µM"],
  ["CNC1C(O)C(OC2C(N)CC(N)C(OC3OC(CN)=CCC3N)C2O)OCC1(C)O (stereo not given)", "> 100 µM"],
  ["C[C@H](N)C(=O)N[C@@H]1[C@H]2C(=C(O)C[C@@H](O)[C@@H]2O)C(=O)O[C@]1(C)C(Cl)Cl", "0.634 µM"],
  ["CC1(C)C=Cc2c(cc3oc4ccc5c(c4c(=O)c3c2O)C=CC(C)(C)O5)O1", "> 100 µM"],
  ["NC1OC(COC(=O)c2ccccc2)C(O)C(OC(=O)c2ccccc2)C1OC(=O)c1ccccc1 (stereo not given)", "42.6 µM"],
  ["Cc1cc(S(=O)(=O)NC(=C(C#N)C#N)[n+]2ccc(N(C)C)cc2)c([S-])cc1Cl", "> 100 µM"],
  ["Nc1ccccc1SC(CC(=O)c1ccccc1)c1ccc([N+](=O)[O-])cc1 (stereo not given)", "47.6 µM"],
  ["COc1ccc(C2=Nn3c(nc4sc(C)c(C)c4c3=O)SC2)cc1", "> 100 µM"],
  ["CCC(=O)C1(N2CCOCC2)CCN(CCCC(=O)c2ccc(F)cc2)CC1", "> 100 µM"],
  ["O=c1[nH]cc(/C=N\\Nc2ccccc2)c(=O)[nH]1", "> 100 µM"]
]}

Source: PubChem BioAssay (NCI)
